# Experimental Target: OTU domain-containing protein 3 (Homo sapiens)
# Test Protocol: Validation of screening hits, potency titration, in vitro enzymatic, OTU domain-containing protein 3 DUB inhibitors (AID 1645868)
# Condition Description: purified OTUD3, ubiquitin-rhodamine cleavage fluorescence, 2 h
Calls of active or inactive are those of the source.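 How the source made its calls: active means maximal percent inhibition of the deubiquitinase OTUD3 of at least 30% across the tested doses; inactive means the rest.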
Returns: one label drawn from 1 for active, 0 for inactive

Look over these answered cases.
>>> assigned_class("c1ccc(-c2ccc(NCc3ccc4c(c3)OCO4)nn2)cc1")
1
>>> assigned_class("CN(C)c1ccc(/C=N/NC(=O)c2ccc(Cl)cc2)cc1")
1
>>> assigned_class("CC1(C)CC2CC(C)(CN2Cc2c(O)ccc3ccccc23)C1 (stereo unspecified)")
0
>>> assigned_class("O=C(Cn1cc(C(=O)C2CC2)c2ccccc21)NCc1ccc2c(c1)OCO2")
1
>>> assigned_class("COc1ccccc1NS(=O)(=O)c1cccc(NC(=O)CCc2nc3ccccc3s2)c1")
0
>>> assigned_class("CCOC(=O)c1c(C)oc2nc(CSc3ccccc3)[nH]c(=O)c12")
0
>>> assigned_class("CC1=C(c2ccc(F)cc2)S(=O)(=O)NC1=NCC(=O)Nc1ccc(F)cc1")
0
>>> assigned_class("O=C(NCc1ccncc1)C1CCN(c2cncnc2N2CCCCC2)CC1")
0

// outcome(item) with item = "O=C(Nc1ccc(Cl)cc1F)c1cc(-c2ccccn2)n[nH]1"
0

Which outcome was entered for the compound "Fc1cccc(Cn2cc(-c3noc(-c4cccnc4)n3)nn2)c1" in this test?
0

What did this assay record as the result for "COc1ccc(CCn2cnc3c4ccccc4n(C)c3c2=O)cc1OC" ?
0

----------
# Experimental Target: OTU domain-containing protein 3 (Homo sapiens)
# Test Protocol: Validation of screening hits, potency titration, in vitro enzymatic, OTU domain-containing protein 3 DUB inhibitors (AID 1645868)
# Condition Description: purified OTUD3, ubiquitin-rhodamine cleavage fluorescence, 2 h
The source made the active and inactive calls.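 Rule for the calls: active = maximal percent inhibition of the deubiquitinase OTUD3 of at least 30% across the tested doses; inactive = the rest.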
Response enum: True = active, False = inactive

Example results:
>>> assigned_class("CC(=O)c1ccc(Cc2ncc(C(F)(F)F)cc2Cl)s1")
"False"
>>> assigned_class("Cc1noc(C)c1S(=O)(=O)Nc1ccc(C(=O)Nc2ccc3c(c2)OCCO3)cc1")
"False"
>>> assigned_class("NS(=O)(=O)c1cccc(NS(=O)(=O)c2ccc(/C=C/C(=O)OCC(=O)c3ccc(Br)cc3)cc2)c1")
"False"
>>> assigned_class("c1ccc(CCN2CCc3nc4cccnc4cc3C2)nc1")
"False"
>>> assigned_class("O=C(c1cscn1)N1CCC2(CC1)CC1(CO2)Nc2ccccc2-n2cccc21 (centres undefined)")
"False"

Please share the test call associated with CC1CC[C@]2(NC1)O[C@H]1C[C@H]3[C@@H]4CC[C@H]5C[C@@H](O[C@@H]6O[C@H](CO)[C@H](O[C@@H]7O[C@H](CO)[C@@H](O)[C@H](O[C@@H]8OC[C@@H](O)[C@H](O)[C@H]8O)[C@H]7O[C@@H]7O[C@H](CO)[C@@H](O)[C@H](O)[C@H]7O)[C@H](O)[C@H]6O)CC[C@]5(C)[C@H]4CC[C@]3(C)[C@H]1[C@@H]2C (some centres undefined) .
False

Recorded test call requested for Cc1cc(N2CCC(NC(=O)NCc3ccc(F)cc3)C2=O)ccc1F (centres undefined)
True

What outcome does the record of this test show for "CCc1ccccc1NC(=O)c1cc(-c2ccccn2)n[nH]1" ?
False

----------
# Experimental Target: OTU domain-containing protein 3 (Homo sapiens)
# Test Protocol: Validation of screening hits, potency titration, in vitro enzymatic, OTU domain-containing protein 3 DUB inhibitors (AID 1645868)
# Condition Description: purified OTUD3, ubiquitin-rhodamine cleavage fluorescence, 2 h
The source made the active and inactive calls.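 The calls were made as follows: active = maximal percent inhibition of the deubiquitinase OTUD3 of at least 30% across the tested doses; inactive = the rest.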
Outcome field: choose from 1 (active), -1 (inactive)

>>> assigned_class("C/C1=C/C=C/[C@H](C)[C@H](O)[C@@H](C)[C@@H](O)[C@@H](C)[C@H](O)[C@H](C)[C@@H](O)[C@@H](C)/C=C(/C)C(=O)c2c(O)c(C)cc3c2C(=O)C=C(NC1=O)C3=O")
-1
>>> assigned_class("O=C(Nc1ccc(Br)cn1)c1nc2ccccc2nc1N1CCCCC1")
-1
>>> assigned_class("O=c1c2ccccc2c(-c2nc(-c3ccncc3)no2)cn1-c1ccccc1")
-1
>>> assigned_class("Cc1ccc(Nc2nc(NCCc3ccccc3)nc3c2cnn3C)cc1")
-1
>>> assigned_class("Cn1c(=O)cc(SCC(=O)NC2CCN(Cc3ccccc3)CC2)c2ccc(Cl)cc21")
-1
>>> assigned_class("COC(=O)CC1CC23OC2(C(=O)c2c(O)cccc2C3=O)C(C)O1 (stereo unspecified)")
-1
>>> assigned_class("CSc1ccc(CNCc2c(C(=O)O)n(Cc3ccccc3)c3cc(C)ccc23)cc1")
-1
>>> assigned_class("CCOc1ccccc1-c1nc(-c2nnn(Cc3ccccc3)c2C)no1")
-1

Which outcome was assigned to "Cc1ccc2nc(CCc3ccc(NS(=O)(=O)c4cccc(Cl)c4C)cc3)[nH]c2c1" in this test?
-1

Fill in: this test's call for "Cc1ccc(-c2nc(NC(=O)COc3ccc(Cl)cc3)no2)cc1" is ___
1

Which outcome was entered for the molecule "Cc1cccc(-c2nc3n(CC(=O)Nc4ccc(Cl)cc4)c(C)cc(=O)n3n2)c1" in this test?
1

----------
Measured IC50, listed per entry.
# Experimental Target: OTU domain-containing protein 3 (Homo sapiens) (UniProt Q5T2D3)
# Sequence (Q5T2D3 whole entry, looked up, the tested form may be a part): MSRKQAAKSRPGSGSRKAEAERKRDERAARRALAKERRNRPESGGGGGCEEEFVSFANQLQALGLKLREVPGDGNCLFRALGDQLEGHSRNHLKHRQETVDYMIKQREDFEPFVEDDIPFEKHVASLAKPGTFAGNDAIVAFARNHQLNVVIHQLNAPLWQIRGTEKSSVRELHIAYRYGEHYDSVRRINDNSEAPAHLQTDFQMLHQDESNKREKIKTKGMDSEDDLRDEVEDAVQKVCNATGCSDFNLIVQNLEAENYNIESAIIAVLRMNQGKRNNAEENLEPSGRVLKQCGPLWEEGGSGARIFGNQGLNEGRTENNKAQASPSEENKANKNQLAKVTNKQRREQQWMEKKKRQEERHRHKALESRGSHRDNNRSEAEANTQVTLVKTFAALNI
# Test Protocol: Validation of screening hits, potency titration, in vitro enzymatic, OTU domain-containing protein 3 DUB inhibitors (AID 1645868)
# Condition Description: purified OTUD3, ubiquitin-rhodamine cleavage fluorescence, 2 h
Active and inactive are the calls of the source.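 How the source made its calls: active means maximal percent inhibition of the deubiquitinase OTUD3 of at least 30% across the tested doses; inactive means the rest.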

Solved cases below.
>>> result("CC1(C(=O)NCc2ccccc2)Cn2c(cc3ccccc32)C(=O)N1Cc1ccccc1 (stereo unspecified)")
"> 50 µM (inactive)"
>>> result("CCC(=O)Nc1cccnc1-c1ccc(C(=O)Nc2cccc(OC)c2)cc1")
"> 50 µM (inactive)"
>>> result("O=c1sc2ccccc2c(=O)n1Cc1cccc(C(F)(F)F)c1")
"> 50 µM (inactive)"
>>> result("O=C(CCn1c(=O)c2sccc2n(CC(=O)OCc2ccccc2)c1=O)NCc1ccc2c(c1)OCO2")
"20.7 µM"
>>> result("O=S1(=O)CCN(CC2CCCO2)c2c(Oc3ccccc3)nc(F)c(Cl)c21 (stereo unspecified)")
"> 50 µM (inactive)"
>>> result("COc1ccc(C(=O)Nc2cc(-c3ccccn3)no2)cn1")
"> 50 µM (inactive)"
>>> result("COc1ccc(-n2nnc(C(=O)Nc3ccc(F)cc3)c2C)cc1")
"> 50 µM (inactive)"
>>> result("O=C(C(c1ccccc1)c1ccccc1)N1CCC(c2nc3c(nnn3Cc3c(F)cccc3Cl)c(=O)[nH]2)CC1")
"27.3 µM"
>>> result("O=c1ncn(Cc2ccc3c(c2)OCO3)cc1-c1ncc(C(F)(F)F)cc1Cl")
"> 50 µM (inactive)"
>>> result("CCOc1ccc(C(=O)Cn2c(=O)n(CC3CCCO3)c(=O)c3cc(OC)c(OC)cc32)cc1Cl (stereo unspecified)")
"45.1 µM"

Query "CCOc1ccccc1NC(=O)Cn1ccn2nc(-c3ccc(OC)cc3)cc2c1=O" on OTU domain-containing protein 3 (Homo sapiens) (UniProt Q5T2D3); IC50 returned: > 50 µM (inactive)

Tested on OTU domain-containing protein 3 (Homo sapiens) (UniProt Q5T2D3), the item Cc1cccc(COc2ccc(C3SCC(=O)Nc4n[nH]c(C)c43)cc2)c1 (stereo unspecified) showed IC50 equal to 15.5 µM

Item "COc1cc(OC)cc(-n2c(=O)c3sccc3n(CC(=O)Nc3ccc(C)cc3)c2=O)c1" was tested on OTU domain-containing protein 3 (Homo sapiens) (UniProt Q5T2D3); the reported IC50 is 21.1 µM

IC50 for OTU domain-containing protein 3 (Homo sapiens) (UniProt Q5T2D3) with input "Cc1cc(C(=O)CSc2nc3ccccc3[nH]2)c(C)n1Cc1ccco1" equals > 50 µM (inactive)

Per the reported OTU domain-containing protein 3 (Homo sapiens) (UniProt Q5T2D3) data, "CC1CCN(Cc2nnc(-c3cn(CC(=O)NC4CCCCC4)c4ccccc34)o2)CC1" has IC50 of > 50 µM (inactive)

Entry O=C(NC(Cc1ccccc1)c1nc2ccccc2[nH]1)c1ccccn1 (stereo unspecified) : IC50 on OTU domain-containing protein 3 (Homo sapiens) (UniProt Q5T2D3) = > 50 µM (inactive)

Field IC50 (OTU domain-containing protein 3 (Homo sapiens) (UniProt Q5T2D3)), entry COc1cccc(NC(=O)C2Cc3ccccc3N2C(=O)c2ccccc2)c1 (stereo unspecified) : 20.1 µM

Measured IC50 for this entry "O=C(OCc1cccc(Cl)c1)c1ccc2ccccc2n1" on OTU domain-containing protein 3 (Homo sapiens) (UniProt Q5T2D3): > 50 µM (inactive)

Value (IC50, OTU domain-containing protein 3 (Homo sapiens) (UniProt Q5T2D3)) for record "O=C(Nc1nnc2n1CCCS2)c1cc2ccccc2o1" = > 50 µM (inactive)

Form field IC50 for item "CCc1ccc2c(c1)[C@]1(C(=O)N2)[C@@H]2C(=O)N(c3ccc(Cl)cc3Cl)C(=O)[C@@H]2[C@@H]2CCCN21" on OTU domain-containing protein 3 (Homo sapiens) (UniProt Q5T2D3): > 50 µM (inactive)

Summary: "CN1CCN(C(=O)c2cc(-c3ccn(CC4CC4)n3)n3ccccc23)CC1" , OTU domain-containing protein 3 (Homo sapiens) (UniProt Q5T2D3), IC50 = > 50 µM (inactive)
